Biological target: Beta-lactamase (Pseudomonas aeruginosa)
Sequence (Q79MP6 whole entry): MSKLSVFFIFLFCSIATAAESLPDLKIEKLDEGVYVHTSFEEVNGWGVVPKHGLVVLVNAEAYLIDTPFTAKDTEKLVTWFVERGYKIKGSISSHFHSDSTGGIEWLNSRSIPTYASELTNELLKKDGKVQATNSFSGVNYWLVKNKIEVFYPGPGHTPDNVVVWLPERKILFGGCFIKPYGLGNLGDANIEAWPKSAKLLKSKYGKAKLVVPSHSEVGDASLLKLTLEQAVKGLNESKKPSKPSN
Assay: Inhibition of metallo-beta-lactamase (MBL) from Pseudomonas aeruginosa mediated by the plasmid-borne IMP-1 enzyme.
IC50: recorded values
// return numeric value only (unit: µM, not printed)

Past entries and their recorded results:
What value of IC50 has been reported for the following compound? CCCCc1nn(-c2ccccc2-c2ccccc2)c(C(=O)O)c1Cc1ccc(-c2ccccc2-c2nnn[nH]2)cc1
65

What value of IC50 has been reported for the following compound? CCCCc1nn(-c2ccc(Cl)cc2)c(C(=O)OCC)c1Cc1ccc(-c2ccccc2-c2nn[nH]n2)cc1
70

What value of IC50 has been reported for the following compound? CCCCc1nn(-c2ccc(Cl)cc2Cl)c(C(=O)OCC)c1Cc1ccc(-c2ccccc2-c2nnn[nH]2)cc1
66

More entries:
What value of IC50 has been reported for the following compound? CCCCc1nn(-c2cccc(Cl)c2)c(C(=O)OCC)c1Cc1ccc(-c2ccccc2-c2nn[nH]n2)cc1
76

What value of IC50 has been reported for the following compound? CCCCc1nn(-c2cccc(Cl)c2Cl)c(C(=O)OCC)c1Cc1ccc(-c2ccccc2-c2nnn[nH]2)cc1
175

====

IC50: recorded values
Molecular target: Metallo-beta-lactamase type 2 (Bacteroides fragilis, UniProt P25910)
Sequence (P25910 whole entry): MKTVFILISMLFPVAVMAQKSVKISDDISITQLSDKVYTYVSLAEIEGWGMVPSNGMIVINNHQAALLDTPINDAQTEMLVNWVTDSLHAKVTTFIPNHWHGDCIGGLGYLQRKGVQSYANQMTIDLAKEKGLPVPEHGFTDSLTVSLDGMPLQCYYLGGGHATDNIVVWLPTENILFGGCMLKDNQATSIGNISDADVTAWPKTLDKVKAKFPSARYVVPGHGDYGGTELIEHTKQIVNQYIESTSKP
Test: Inhibition of metallo-beta-lactamase (MBL) from Bacteroides fragilis.
// return numeric value only (unit: µM, not printed)

Past entries and their recorded results:
What value of IC50 has been reported for the following compound? CCCCc1nn(-c2cccc(Cl)c2)c(C(=O)O)c1Cc1ccc(-c2ccccc2-c2nn[nH]n2)cc1
190

What value of IC50 has been reported for the following compound? CCCCc1nn(-c2c(Cl)cc(Cl)cc2Cl)c(C(=O)O)c1Cc1ccc(-c2ccccc2-c2nnn[nH]2)cc1
33

What value of IC50 has been reported for the following compound? CCCCc1nn(-c2c(Cl)cccc2Cl)c(C(=O)O)c1Cc1ccc(-c2ccccc2-c2nnn[nH]2)cc1
100

What value of IC50 has been reported for the following compound? CCCCc1nn(-c2cc(Cl)ccc2Cl)c(C(=O)OCC)c1Cc1ccc(-c2ccccc2-c2nn[nH]n2)cc1
100

More entries:
What value of IC50 has been reported for the following compound? CCCCc1nn(-c2ccc(Cl)cc2)c(C(=O)O)c1Cc1ccc(-c2ccccc2-c2nn[nH]n2)cc1
230

What value of IC50 has been reported for the following compound? CCCCc1nn(-c2ccc(Cl)cc2Cl)c(C(=O)OCC)c1Cc1ccc(-c2ccccc2-c2nnn[nH]2)cc1
100

What value of IC50 has been reported for the following compound? CCCCc1nn(-c2ccccc2Cl)c(C(=O)O)c1Cc1ccc(-c2ccccc2-c2nn[nH]n2)cc1
30

What value of IC50 has been reported for the following compound? CCCCc1nn(-c2ccccc2C)c(C(=O)O)c1Cc1ccc(-c2ccccc2-c2nn[nH]n2)cc1
80

====

IC50: recorded values
Target: Metallo-beta-lactamase type 2 (Bacteroides fragilis)
Test: Inhibition of metallo-beta-lactamase (MBL) from Bacteroides fragilis.
Answer as a quantity: numeral, then unit.

Past entries and their recorded results:
What value of IC50 has been reported for the following compound? CCCCc1nn(-c2cccc(Cl)c2)c(C(=O)OCC)c1Cc1ccc(-c2ccccc2-c2nn[nH]n2)cc1
170 µM

What value of IC50 has been reported for the following compound? CCCCc1nn(-c2ccccc2)c(C(=O)O)c1Cc1ccc(-c2ccccc2-c2nn[nH]n2)cc1
200 µM

What value of IC50 has been reported for the following compound? CCCCc1nn(-c2ccccc2[N+](=O)[O-])c(C(=O)O)c1Cc1ccc(-c2ccccc2-c2nnn[nH]2)cc1
120 µM

What value of IC50 has been reported for the following compound? CCCCc1nn(-c2ccccc2C(F)(F)F)c(C(=O)O)c1Cc1ccc(-c2ccccc2-c2nnn[nH]2)cc1
40 µM

What value of IC50 has been reported for the following compound? CCCCc1nn(-c2ccccc2Cl)c(C(=O)OCC)c1Cc1ccc(-c2ccccc2-c2nnn[nH]2)cc1
170 µM

What value of IC50 has been reported for the following compound? CCCCc1nn(-c2ccc(Cl)cc2Cl)c(C(=O)O)c1Cc1ccc(-c2ccccc2-c2nn[nH]n2)cc1
80 µM

What value of IC50 has been reported for the following compound? CCCCc1nn(-c2ccccc2)c(C(=O)OCC)c1Cc1ccc(-c2ccccc2-c2nnn[nH]2)cc1
100 µM

Alright, here's another compound for you.
What value of IC50 has been reported for the following compound? CCCCc1nn(-c2cccc(Cl)c2Cl)c(C(=O)OCC)c1Cc1ccc(-c2ccccc2-c2nnn[nH]2)cc1
100 µM
